Cited source for all entries: PubChem BioAssay (NCI)

System: RPMI-8226 leukemia
Experiment: NCI tumour cell line growth inhibition, 48 h; in the data active means GI50 below about 0.43 µM; inactive means the rest
Labels: active, inactive

[[record]]
compound = "Cn1ccnc1C(=O)/C=C/c1ccc(CNC(=O)c2ccc(Cl)cc2)cc1"
classification = "inactive"

[[record]]
compound = "NC(=S)n1c(=O)n(-c2cccc(C(F)(F)F)c2)c(=O)c2cc(-c3ccc(F)cc3F)ccc21"
classification = "inactive"

[[record]]
compound = "CC1=C(CN(O)C(N)=O)C2=C(C)C3(CC3)[C@](C)(O)C(=O)C2=C1"
classification = "active"

[[record]]
compound = "CCN1C(=O)N(CC)C2SC(N/N=C/c3ccccc3)=NC21 (centres undefined)"
classification = "active"


----------
Test system: A549 NSCLC
Test: NCI tumour cell line growth inhibition, 48 h
REPORTED METRIC: TGI

[[record]]
compound = "NC(=S)n1c(=O)n(-c2cccc(C(F)(F)F)c2)c(=O)c2cc(-c3ccc(F)cc3F)ccc21"
tested_on = "A549 NSCLC"
result = "11.3 µM"

[[record]]
compound = "CC1=C(CN(O)C(N)=O)C2=C(C)C3(CC3)[C@](C)(O)C(=O)C2=C1"
tested_on = "A549 NSCLC"
result = "> 100 µM"

[[record]]
compound = "CCN1C(=O)N(CC)C2SC(N/N=C/c3ccccc3)=NC21 (stereo not given)"
tested_on = "A549 NSCLC"
result = "> 100 µM"

[[record]]
compound = "Cn1ccnc1C(=O)/C=C/c1ccc(CNC(=O)c2ccc(Cl)cc2)cc1"
tested_on = "A549 NSCLC"
result = "> 14.3 µM"

[[record]]
compound = "C=C(C)C(=O)O[C@H]1C[C@@]2(C)OC(=CC2=O)/C(CO)=C\\[C@H]2OC(=O)C(=C)[C@H]12"
tested_on = "A549 NSCLC"
result = "> 3.33 µM"


----------
Tested on: MDA-MB-231 breast
Assay: NCI tumour cell line growth inhibition, 48 h
REPORTED METRIC: TGI (µM)

[[record]]
compound = "C=C(C)C(=O)O[C@H]1C[C@@]2(C)OC(=CC2=O)/C(CO)=C\\[C@H]2OC(=O)C(=C)[C@H]12"
reported_metric = "TGI"
comparative_sign = "="
numeric_value = 0.206

[[record]]
compound = "CCN1C(=O)N(CC)C2SC(N/N=C/c3ccccc3)=NC21 (centres undefined)"
reported_metric = "TGI"
comparative_sign = ">"
numeric_value = 100

[[record]]
compound = "NC(=S)n1c(=O)n(-c2cccc(C(F)(F)F)c2)c(=O)c2cc(-c3ccc(F)cc3F)ccc21"
reported_metric = "TGI"
comparative_sign = "="
numeric_value = 5.95

[[record]]
compound = "CC1=C(CN(O)C(N)=O)C2=C(C)C3(CC3)[C@](C)(O)C(=O)C2=C1"
reported_metric = "TGI"
comparative_sign = "="
numeric_value = 5.88


----------
Test system: CCRF-CEM leukemia
Assay: NCI tumour cell line growth inhibition, 48 h; in the data active = GI50 below about 0.43 µM; inactive = the rest
Labels: Y (active), N (inactive)

[[record]]
compound = "CC1=C(CN(O)C(N)=O)C2=C(C)C3(CC3)[C@](C)(O)C(=O)C2=C1"
classification = "N"

[[record]]
compound = "NC(=S)n1c(=O)n(-c2cccc(C(F)(F)F)c2)c(=O)c2cc(-c3ccc(F)cc3F)ccc21"
classification = "N"

[[record]]
compound = "CCN1C(=O)N(CC)C2SC(N/N=C/c3ccccc3)=NC21 (centres undefined)"
classification = "Y"

[[record]]
compound = "Cn1ccnc1C(=O)/C=C/c1ccc(CNC(=O)c2ccc(Cl)cc2)cc1"
classification = "N"

